Test: Water solubility of compound at pH 2 at 0.1 to 10 mg by HPLC-UV analysis
Assay type: physicochemical
Conditions: dose 0.1-10 mg
As shown below, each of these molecules has a reported solubility value.
Numeric answer only, unit µg/mL assumed.

Past entries and their recorded results:
CCNc1cc(Oc2c(OC)cc3cc(C#N)ccc3c2OC)nc(Nc2ccc(C#N)cc2)n1.Cl = 9
COc1cc2cc(C#N)ccc2c(OC)c1Oc1cc(N)nc(Nc2ccc(C#N)cc2)n1.Cc1ccc(S(=O)(=O)O)cc1 = 2
CCNc1cc(Oc2c(OC)cc3cc(C#N)ccc3c2OC)nc(Nc2ccc(C#N)cc2)n1.O=C(O)/C=C\C(=O)O = 2
COc1cc2cc(C#N)ccc2c(OC)c1Oc1cc(N2CCC(O)C2)nc(Nc2ccc(C#N)cc2)n1 (stereo unspecified) = 1
COc1cc2cc(C#N)ccc2c(OC)c1Oc1cc(N2CCC(O)C2)nc(Nc2ccc(C#N)cc2)n1.Cc1ccc(S(=O)(=O)O)cc1 (stereo unspecified) = 8

For this molecule ( "CCNc1cc(Oc2c(OC)cc3cc(C#N)ccc3c2OC)nc(Nc2ccc(C#N)cc2)n1.O=C(O)CC(O)(CC(=O)O)C(=O)O" ), measured solubility is 1

For this molecule ( "COc1cc2cc(C#N)ccc2c(OC)c1Oc1cc(N)nc(Nc2ccc(C#N)cc2)n1.CS(=O)(=O)O" ), measured solubility is 4
